Test system: USH2A gene (F region and R region of exon 13)
assayProcedure: Indel efficiency of USH2A guide RNA expression cassettes by next generation sequencing (NGS)
Assay type: cell-based, human
Set-up: concentration or dose not given beside the values
studyConditions: scaffold Cas12f1 ver4.0 (SEQ ID NO: 316); expression cassette; NGS
Source text: A nucleotide sequence encoding the guide RNA designed based on the protospacer sequence selected in Example 2.1 was constructed into an expression cassette, which was immediately transfected to confirm indel efficiency by next generation sequencing (NGS) without the T7E1 assay. […] After confirming the amplified size, the gel was purified according to Experimental Example 9 to quantify the PCR products. […]
Measured Indel efficiency (%) Cas12f1 ver4.0, listed per entry for reference.
Your answer should be a number followed by the unit of measure.

Look over these answered cases.
> print(dat)
                                  seqstring                          measurename  observedresult
1  CUUGCCAGAGAAGGAGUAGA (expressed or natural sequence) [GUIDE-USH2A-R19]  Indel efficiency (%) Cas12f1 ver4.0          27.24%
2  UUUCUUUGCCUUGUAAUACC (expressed or natural sequence) [GUIDE-USH2A-F24]  Indel efficiency (%) Cas12f1 ver4.0           0.19%

Incoming: Consider the sequence shown here: AUUAUACCUUCGUGAAGCUG (expressed or natural sequence) [GUIDE-USH2A-F17] What is its recorded Indel efficiency (%) Cas12f1 ver4.0?
Outgoing: 0.02%

Incoming: // query Indel efficiency (%) Cas12f1 ver4.0 value for entry AGAGUAAGAUUGGCCCCCUA (expressed or natural sequence) [GUIDE-USH2A-F05]
Outgoing: 1.48%
